# Tested on: 958767-090-R-J1-PDC spheroid growth
# experiment_description: Anticancer human tumor 958767-090-R-J1-PDC patient-derived head and neck squamous carcinoma cell line growth inhibition [IpAb]
# stated_conditions: second compound 1 µM; first compound 0.3 µM; active compounds read low; spheroids with HUVEC and MSC
Assignment: determine reported viability, T/C for the given molecules.
Answers are plain numbers, in %.

Q: Bench note: what viability, T/C did CC(=O)c1c(C)c2cnc(Nc3ccc(N4CCNCC4)cn3)nc2n(C2CCCC2)c1=O + CCN1CCN(Cc2ccc(Nc3ncc(F)c(-c4cc(F)c5nc(C)n(C(C)C)c5c4)n3)nc2)CC1 show?
Ans: 53.1

Q: Requested read-out: viability, T/C. Entry: CC(C)(C)c1cnc(CSc2cnc(NC(=O)C3CCNCC3)s2)o1 + CCN1CCN(Cc2ccc(Nc3ncc(F)c(-c4cc(F)c5nc(C)n(C(C)C)c5c4)n3)nc2)CC1
Ans: 3.35

Q: Need viability, T/C of Cn1cnc2c(F)c(Nc3ccc(Br)cc3Cl)c(C(=O)NOCCO)cc21 + CCN1CCN(Cc2ccc(Nc3ncc(F)c(-c4cc(F)c5nc(C)n(C(C)C)c5c4)n3)nc2)CC1 , thanks.
Ans: 42.8

Q: Requested read-out: viability, T/C. Entry: CC(=O)c1c(C)c2cnc(Nc3ccc(N4CCNCC4)cn3)nc2n(C2CCCC2)c1=O + CC(C)NCC(C(=O)N1CCN(c2ncnc3c2C(C)CC3O)CC1)c1ccc(Cl)cc1
Ans: 40.2

Q: Report viability, T/C for CC(C)(C)c1cnc(CSc2cnc(NC(=O)C3CCNCC3)s2)o1 + CC(C)NCC(C(=O)N1CCN(c2ncnc3c2C(C)CC3O)CC1)c1ccc(Cl)cc1 please.
Ans: 1.77

Kindly review the next molecule as well.
Q: What does the data say about its viability, T/C? Entry: Cn1cnc2c(F)c(Nc3ccc(Br)cc3Cl)c(C(=O)NOCCO)cc21 + CC(C)NCC(C(=O)N1CCN(c2ncnc3c2C(C)CC3O)CC1)c1ccc(Cl)cc1
Ans: 10.1

---

# Tested on: 958767-090-R-J1-PDC spheroid growth
# experiment_description: Anticancer human tumor 958767-090-R-J1-PDC cell line growth inhibition [IpAb];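 further: spheroids exposed to agents for 7 days; 100% = DMSO vehicle control wells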
# stated_conditions: second compound 10 µM; first compound 0.316 µM; active compounds read low; spheroids with HUVEC and MSC
# Method: Combinatorial screen of targeted agents with ipatasertib and abemaciclib in multi-cell type tumor spheroids […] Compounds. […] If the clinical Cmax for an agent had not been determined, the highest concentration tested was 10 microM. NCI60 Cell Culture. […] The optimal seeding densities for each of the cell lines at each time point assessed were determined prior to performing the concentration response studies. […]
Exercise: for every item that follows, state its recorded viability, T/C.

Below: 2 molecules and their reported viability, T/C.
Q: Record lookup: for 958767-090-R-J1-PDC spheroid growth, what viability, T/C belongs to Cc1nc(NC(=O)N2CCCC2C(N)=O)sc1-c1ccnc(C(C)(C)C(F)(F)F)c1 (stereo not drawn) + CC(C)NCC(C(=O)N1CCN(c2ncnc3c2C(C)CC3O)CC1)c1ccc(Cl)cc1 ?
Ans: 16.5%

Q: Return viability, T/C measured with 958767-090-R-J1-PDC spheroid growth given this molecule: Cn1nccc1Nc1nccc(-c2ccn(C(CO)c3ccc(Cl)c(F)c3)c(=O)c2)n1 (stereo not drawn) + CC(C)NCC(C(=O)N1CCN(c2ncnc3c2C(C)CC3O)CC1)c1ccc(Cl)cc1
Ans: 24.1%

From here, focus on the item given below.
Q: # query: viability, T/C | item C=CC(=O)N1CCN(c2nc(=O)n(-c3c(C)ccnc3C(C)C)c3nc(-c4c(O)cccc4F)c(F)cc23)C(C)C1 (stereo not drawn) + CC(C)NCC(C(=O)N1CCN(c2ncnc3c2C(C)CC3O)CC1)c1ccc(Cl)cc1 | system: 958767-090-R-J1-PDC spheroid growth
Ans: 64.9%
